These data points were gathered from patent EP4793275A1.

measurement-target: AT2R (Homo sapiens)
Sequence (P50052 whole entry): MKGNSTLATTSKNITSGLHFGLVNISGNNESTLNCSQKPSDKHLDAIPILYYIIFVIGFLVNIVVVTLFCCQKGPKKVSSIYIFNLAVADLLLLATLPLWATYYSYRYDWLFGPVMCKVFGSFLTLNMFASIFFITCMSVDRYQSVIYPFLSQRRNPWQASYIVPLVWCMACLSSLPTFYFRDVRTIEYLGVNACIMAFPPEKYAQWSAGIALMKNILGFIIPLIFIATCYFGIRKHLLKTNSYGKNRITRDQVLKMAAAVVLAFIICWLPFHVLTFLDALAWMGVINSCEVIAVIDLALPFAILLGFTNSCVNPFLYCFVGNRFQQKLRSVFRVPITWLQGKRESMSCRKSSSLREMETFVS
property-label: pIC50
In textbook form, pIC50 equals minus log to base ten of the concentration in mol/L.

Notebook entry, AT2R (Homo sapiens) assay: pIC50 of CC(C)Cc1cc(F)c(-c2nn[nH]n2)c(N2CCN(Cc3cccnn3)[C@@H](C)C2)c1 [Control Compound I, reference compound] = ?
7.92

---

measurement-target: hERG potassium channel (Homo sapiens, UniProt Q12809)
Sequence (Q12809 whole entry): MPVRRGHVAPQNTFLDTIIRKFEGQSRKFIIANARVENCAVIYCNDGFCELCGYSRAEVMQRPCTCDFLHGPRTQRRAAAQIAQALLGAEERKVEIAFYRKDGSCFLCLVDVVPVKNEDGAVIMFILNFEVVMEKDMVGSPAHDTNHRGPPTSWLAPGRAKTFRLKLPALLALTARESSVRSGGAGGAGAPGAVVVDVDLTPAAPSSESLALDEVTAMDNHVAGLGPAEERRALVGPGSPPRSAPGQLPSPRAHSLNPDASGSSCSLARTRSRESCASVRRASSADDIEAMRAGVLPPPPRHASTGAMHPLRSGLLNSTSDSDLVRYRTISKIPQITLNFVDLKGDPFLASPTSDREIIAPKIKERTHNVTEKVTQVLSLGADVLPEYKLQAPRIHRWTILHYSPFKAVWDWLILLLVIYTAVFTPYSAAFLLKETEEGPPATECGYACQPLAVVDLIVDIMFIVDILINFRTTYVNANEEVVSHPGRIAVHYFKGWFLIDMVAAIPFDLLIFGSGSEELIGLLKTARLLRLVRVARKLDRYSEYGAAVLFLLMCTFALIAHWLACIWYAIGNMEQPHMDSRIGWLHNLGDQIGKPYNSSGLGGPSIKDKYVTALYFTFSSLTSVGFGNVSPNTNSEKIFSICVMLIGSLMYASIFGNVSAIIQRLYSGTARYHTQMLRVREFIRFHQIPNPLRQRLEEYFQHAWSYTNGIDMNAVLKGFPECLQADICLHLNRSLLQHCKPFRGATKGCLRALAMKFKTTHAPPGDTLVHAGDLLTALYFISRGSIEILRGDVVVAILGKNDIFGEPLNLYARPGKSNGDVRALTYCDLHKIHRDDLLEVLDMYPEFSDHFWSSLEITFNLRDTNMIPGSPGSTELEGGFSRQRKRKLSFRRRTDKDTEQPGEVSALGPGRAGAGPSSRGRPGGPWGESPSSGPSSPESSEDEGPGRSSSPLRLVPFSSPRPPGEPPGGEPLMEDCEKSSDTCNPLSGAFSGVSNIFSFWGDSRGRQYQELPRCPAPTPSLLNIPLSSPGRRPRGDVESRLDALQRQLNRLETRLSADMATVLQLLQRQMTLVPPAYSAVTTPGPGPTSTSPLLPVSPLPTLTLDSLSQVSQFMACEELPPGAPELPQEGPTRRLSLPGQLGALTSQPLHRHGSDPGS
assay-protocol: Effects on hERG channel currents by manual patch-clamp
recorded-conditions: HEK-293 cell line stably expressing hERG potassium channel, tail current, room temperature; read-out: IC50 (inhibitory effects on hERG)
property-label: IC50

Quick one: IC50 of CC(C)Cc1cc(OC(F)F)c(-c2nn[nH]n2)c(N2CCN(Cc3cccnn3)[C@@H](C)C2)c1 ?
22.8 µM

Any idea what its IC50 is? The compound is CC(C)Cc1cc(F)c(-c2nn[nH]n2)c(N2CCN(Cc3cccnn3)[C@@H](C)C2)c1 [Control Compound I, reference compound]
2.8 µM

More entries:
Give its IC50 value. Item: CC(C)Cc1cc(C(F)F)c(-c2nn[nH]n2)c(N2CCN(Cc3cccnn3)[C@@H](C)C2)c1
> 30 µM

---

Each item that follows carries a reported AUC(0-t).
assay-protocol: Pharmacokinetic test in rats
Format: in vivo
recorded-conditions: rat; male SD rats, oral administration by gavage, 10 mg/kg, plasma
Dear colleague, please return just the value in ng·h/mL, with no unit written.

Give its AUC(0-t) value. Item: CC(C)Cc1cc(F)c(-c2nn[nH]n2)c(N2CCN(Cc3cccnn3)[C@@H](C)C2)c1 [Control Compound I, reference compound]
10000

Pending molecule:
Name the reported AUC(0-t) value associated with the molecule CC(C)Cc1cc(C(F)F)c(-c2nn[nH]n2)c(N2CCN(Cc3cccnn3)[C@@H](C)C2)c1
14100

---

Each item that follows carries a reported Cmax.
assay-protocol: Pharmacokinetic test in rats
Assay type: in vivo
recorded-conditions: rat; male SD rats, oral administration by gavage, 10 mg/kg, plasma
API: value field is a number in ng/mL; no unit string.

Give the measured Cmax of CC(C)Cc1cc(F)c(-c2nn[nH]n2)c(N2CCN(Cc3cccnn3)[C@@H](C)C2)c1 [Control Compound I, reference compound] .
3240

The record that follows has no Cmax shown yet.
What measured Cmax goes with CC(C)Cc1cc(C(F)F)c(-c2nn[nH]n2)c(N2CCN(Cc3cccnn3)[C@@H](C)C2)c1 ?
4380
